experiment: compounds raising miR-122 luciferase sensor output – cell-based, single point, plate reader, miR-122 inhibitor project, primary screen (AID 602342); details: Huh7 miR-122 Renilla luciferase sensor, 48 h, neutral wells = 0; at 16.7 µM unless noted;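 further: higher luciferase means less miR-122 activity so hits act as miR-122 inhibitors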
About 1,000 (0.29%) of roughly 340,000 compounds were called active.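 How the source made its calls: active means mean replicate activation score at least 90 and every replicate individually at or above 90; inconclusive means only one of the two criteria met; inactive means neither criterion met.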 The full list was thinned out, with actives kept by preference.
Please state which outcome applies, choosing from 1.0 = active, 0.0 = inactive

| smilesRepresentation | cat |
| --- | --- |
| Cc1ccc(NS(=O)(=O)c2ccc(F)cc2)nc1 | 0.0 |
| CC(C)NC(=O)Nc1ccc2c(c1)C(=O)N([C@H](C)CO)C[C@@H](C)[C@H](CN(C)S(C)(=O)=O)O2 | 0.0 |
| Cc1cc(C)cc(NS(=O)(=O)c2ccc(F)cc2)c1 | 1.0 |
| CCCN1C[C@H](C)[C@@H](OC)CN(C)C(=O)c2ccc(NC(=O)CC)cc2OC[C@@H]1C | 0.0 |
| COc1cc(OC)c(C(=O)Nc2ccccc2-c2ccccc2)cc1OC | 0.0 |
| C[C@@H]1CN([C@H](C)CO)C(=O)c2cccc(NS(=O)(=O)c3ccc(F)cc3)c2O[C@@H]1CN(C)S(=O)(=O)c1ccccc1 | 0.0 |

Which outcome was assigned to `Cc1ccc(C(=O)Nc2ccccc2-c2ccccc2)cc1S(=O)(=O)Nc1ccccc1` in this test?
1.0

Entry to check: `CCS(=O)(=O)c1ccc(O)c(NC(=O)COc2ccc(Cl)cc2)c1`
0.0

Entry to check: `CC(=O)N(C)C[C@H]1Oc2ncc(-c3cccc(F)c3)cc2C(=O)N([C@@H](C)CO)C[C@H]1C`
0.0

###

assay: compounds raising miR-122 luciferase sensor output – cell-based, single point, plate reader, miR-122 inhibitor project, primary screen (AID 602342); conditions: Huh7 miR-122 Renilla luciferase sensor, 48 h, active compounds read high, neutral wells = 0, positive control = 100; at 16.7 µM unless noted;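 further: higher luciferase means less miR-122 activity so hits act as miR-122 inhibitors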
The whole screen tested about 340,000 compounds, of which about 1,000 (0.29%) were called active. The list comes from a sample in which actives are over-represented; it also holds close analogues and randomly drawn compounds.
Measured activation (reporter increase) values are reported for all entries that follow.

In the examples that follow, each entry is paired with its recorded activation (reporter increase).
| smilesRepresentation | endpointResult |
| --- | --- |
| C[C@H](CO)N1C[C@H](C)[C@@H](CN(C)C(=O)Nc2ccc3c(c2)OCO3)OCCCC[C@H](C)Oc2ccc(NC(=O)Nc3ccc(F)cc3)cc2C1=O | -4.3% (inactive) |
| CCOc1ccc(C)cc1S(=O)(=O)NC1CCCCCC1 | 67.9% [at 12.5 µM] (inactive) |
| COc1ccc(S(=O)(=O)N(C)C[C@@H]2Oc3ccc(NC(=O)CCC(F)(F)F)cc3C(=O)N([C@@H](C)CO)C[C@H]2C)cc1 | -0.455% (inactive) |
| C[C@H]1CN([C@@H](C)CO)C(=O)c2cccc(NC(=O)Nc3ccc(F)cc3)c2O[C@H]1CN(C)S(=O)(=O)c1cn(C)cn1 | 4.09% (inactive) |
| Cc1ccc(S(=O)(=O)Nc2ccc3c(c2)CC(=O)N([C@@H](C)CO)C[C@H](C)[C@H](CN(C)Cc2ccc(C(=O)Nc4ccccc4N)cc2)O3)cc1 | 252% (active) |
| C[C@@H]1CCCCO[C@@H](CN(C)S(=O)(=O)c2cn(C)cn2)[C@@H](C)CN([C@@H](C)CO)C(=O)c2cc(NC(=O)Nc3ccc(C(F)(F)F)cc3)ccc2O1 | -9.96% (inactive) |
| O=C(c1ccncc1)N1C[C@H]2[C@@H](c3ccccc31)[C@H](CO)N2C(=O)c1ccccn1 | -28.6% (inactive) |
| CN1C(=O)c2cc(NS(=O)(=O)c3ccc(Cl)cc3)ccc2OC[C@@H]2O[C@H](CC(=O)O)CC[C@@H]21 | 5.56% (inactive) |
| O=C(C[C@@H]1C[C@@H]2c3cc(NC(=O)c4ccc5c(c4)OCO5)ccc3O[C@@H]2[C@@H](CO)O1)NCC1CC1 | -4.14% (inactive) |
| C[C@H](CO)N1C[C@H](C)[C@H](CN(C)C)Oc2ccc(NC(=O)c3ccncc3)cc2CC1=O | 5.36% (inactive) |

Which activation (reporter increase) reading was recorded for the molecule `Cc1noc(C)c1NC(=O)Nc1ccc2c(c1)C(=O)N([C@H](C)CO)C[C@@H](C)[C@H](CN(C)C(=O)Nc1cccc3ccccc13)OCCCC[C@@H](C)O2` ?
0.113% (inactive)

Entry to check: `C[C@H]1CN([C@@H](C)CO)C(=O)Cc2cc(NS(=O)(=O)c3ccccc3)ccc2O[C@@H]1CN(C)Cc1ccc(C(=O)Nc2ccccc2N)cc1`
-6.43% (inactive)

Entry to check: `CC(C)CNS(=O)(=O)c1ccc(CCC(=O)NCc2ccc(Cl)cc2)cc1`
15.1% [at 12.5 µM] (inactive)

Entry to check: `CO[C@@H]1CN(C)C(=O)c2ccc(NS(=O)(=O)c3ccc(Cl)cc3)cc2OC[C@@H](C)N(C)C[C@H]1C`
-8.17% (inactive)

Entry to check: `CCC(=O)N[C@H]1C=C[C@@H](CC(=O)NCC2CCCCC2)O[C@H]1CO`
-4.01% (inactive)

Recorded values, source PubChem BioAssay AID602342.
